# ASSAY_INFO: Pharmacokinetic/toxicokinetic profile of RTX after intravesical instillation in dogs
# Format: in vivo, dog
# EXPERIMENTAL_CONTEXT: male, dog, plasma, other: intravesical instillation, 250 mcg, male dogs, 250 mcg intravesical, 72 h; read-out: Plasma concentration of RTX, Mean
# Experimental: Local tolerance and the pharmacokinetic (PK), and toxicokinetic (TK) profile of RTX in dogs was determined after a single instillation of RTX into the bladder of dogs (n=6). […] Blood samples were collected from all animals on Day 1 pre-dose and at 0.5, 1, 2, 4, 6, 12, 24, 36, 48, 60, and 72 hours post-dose. The toxicokinetic (TK) parameters were determined for RTX, and if appropriate, the metabolites, from mean concentration-time data. […]
METRIC_NAME: concentration at 72 h (ng/mL)

COMPOUND	METRIC_NAME	TEST_RESULT
C=C(C)[C@]12C[C@@H](C)[C@@]34O[C@](Cc5ccccc5)(O[C@@H]1[C@@H]3C=C(COC(=O)Cc1ccc(O)c(OC)c1)C[C@]1(O)C(=O)C(C)=C[C@@H]41)O2 [RTX, resiniferatoxin]	concentration at 72 h	0

###

# ASSAY_INFO: Pharmacokinetic/toxicokinetic profile of RTX after intravesical instillation in dogs
# Type: in vivo, dog
# EXPERIMENTAL_CONTEXT: male, dog, plasma, other: intravesical instillation, 250 mcg, male dogs, 250 mcg intravesical, 4 h; read-out: Plasma concentration of RTX, Mean
METRIC_NAME: concentration at 4 h (ng/mL)

COMPOUND	VALUE_UNIT	TEST_RESULT
C=C(C)[C@]12C[C@@H](C)[C@@]34O[C@](Cc5ccccc5)(O[C@@H]1[C@@H]3C=C(COC(=O)Cc1ccc(O)c(OC)c1)C[C@]1(O)C(=O)C(C)=C[C@@H]41)O2 [RTX, resiniferatoxin]	ng/mL	0

###

# ASSAY_INFO: Pharmacokinetic/toxicokinetic profile of RTX after intravesical instillation in dogs
# Format: in vivo, dog
# EXPERIMENTAL_CONTEXT: female, dog, plasma, other: intravesical instillation, 250 mcg, female dogs, 250 mcg intravesical, 36 h; read-out: Plasma concentration of RTX, Mean

MOLECULE	concentration at 36 h (ng/mL)
C=C(C)[C@]12C[C@@H](C)[C@@]34O[C@](Cc5ccccc5)(O[C@@H]1[C@@H]3C=C(COC(=O)Cc1ccc(O)c(OC)c1)C[C@]1(O)C(=O)C(C)=C[C@@H]41)O2	0

###

# ASSAY_INFO: Pharmacokinetic/toxicokinetic profile of RTX after intravesical instillation in dogs
# Type: in vivo, dog
# EXPERIMENTAL_CONTEXT: male, dog, plasma, other: intravesical instillation, 250 mcg, male dogs 1003, 1005 individual, 250 mcg intravesical, 1 h; read-out: Plasma concentration of RTX
# Method: Local tolerance and the pharmacokinetic (PK), and toxicokinetic (TK) profile of RTX in dogs was determined after a single instillation of RTX into the bladder of dogs (n=6). […] Blood samples were collected from all animals on Day 1 pre-dose and at 0.5, 1, 2, 4, 6, 12, 24, 36, 48, 60, and 72 hours post-dose. The toxicokinetic (TK) parameters were determined for RTX, and if appropriate, the metabolites, from mean concentration-time data. […]
METRIC_NAME: concentration at 1 h

COMPOUND	METRIC_NAME	TEST_RESULT
C=C(C)[C@]12C[C@@H](C)[C@@]34O[C@](Cc5ccccc5)(O[C@@H]1[C@@H]3C=C(COC(=O)Cc1ccc(O)c(OC)c1)C[C@]1(O)C(=O)C(C)=C[C@@H]41)O2 [RTX, resiniferatoxin]	concentration at 1 h	0.264 ng/mL

###

# ASSAY_INFO: Pharmacokinetic/toxicokinetic profile of RTX after intravesical instillation in dogs
# Assay type: in vivo, dog
# EXPERIMENTAL_CONTEXT: both sexes, dog, plasma, other: intravesical instillation, 25 mcg, Group 1 dogs, 25 mL at 1 mcg/mL (25 mcg/dose), 2 hours post-dosing, male and female dog; read-out: plasma concentrations for RTX

MOLECULE	concentration at 2 h
C=C(C)[C@]12C[C@@H](C)[C@@]34O[C@](Cc5ccccc5)(O[C@@H]1[C@@H]3C=C(COC(=O)Cc1ccc(O)c(OC)c1)C[C@]1(O)C(=O)C(C)=C[C@@H]41)O2	< 0.05 ng/mL

###

# ASSAY_INFO: Pharmacokinetic/toxicokinetic profile of RTX after intravesical instillation in dogs
# Type: in vivo, dog
# EXPERIMENTAL_CONTEXT: female, dog, plasma, other: intravesical instillation, 250 mcg, female dogs, 250 mcg intravesical, 12 h; read-out: Plasma concentration of RTX, Mean

COMPOUND	VALUE_UNIT	concentration at 12 h
C=C(C)[C@]12C[C@@H](C)[C@@]34O[C@](Cc5ccccc5)(O[C@@H]1[C@@H]3C=C(COC(=O)Cc1ccc(O)c(OC)c1)C[C@]1(O)C(=O)C(C)=C[C@@H]41)O2 [RTX, resiniferatoxin]	ng/mL	0

###

# ASSAY_INFO: Pharmacokinetic/toxicokinetic profile of RTX after intravesical instillation in dogs
# Type: in vivo, dog
# EXPERIMENTAL_CONTEXT: female, dog, plasma, other: intravesical instillation, 250 mcg, female dogs, 250 mcg intravesical, 24 h; read-out: Plasma concentration of RTX, Mean

MOLECULE	VALUE_UNIT	concentration at 24 h
C=C(C)[C@]12C[C@@H](C)[C@@]34O[C@](Cc5ccccc5)(O[C@@H]1[C@@H]3C=C(COC(=O)Cc1ccc(O)c(OC)c1)C[C@]1(O)C(=O)C(C)=C[C@@H]41)O2	ng/mL	0

###

# ASSAY_INFO: Pharmacokinetic/toxicokinetic profile of RTX after intravesical instillation in dogs
# Assay type: in vivo, dog
# EXPERIMENTAL_CONTEXT: female, dog, plasma, other: intravesical instillation, 250 mcg, female dogs 1004, 1006 individual, 250 mcg intravesical, 6 h; read-out: Plasma concentration of RTX

MOLECULE	VALUE_UNIT	concentration at 6 h
C=C(C)[C@]12C[C@@H](C)[C@@]34O[C@](Cc5ccccc5)(O[C@@H]1[C@@H]3C=C(COC(=O)Cc1ccc(O)c(OC)c1)C[C@]1(O)C(=O)C(C)=C[C@@H]41)O2	ng/mL	0

###

# ASSAY_INFO: Pharmacokinetic/toxicokinetic profile of RTX after intravesical instillation in dogs
# Assay type: in vivo, dog
# EXPERIMENTAL_CONTEXT: male, dog, plasma, other: intravesical instillation, 250 mcg, male dogs, 250 mcg intravesical, 60 h; read-out: Plasma concentration of RTX, Mean
METRIC_NAME: concentration at 60 h

MOLECULE	TEST_RESULT
C=C(C)[C@]12C[C@@H](C)[C@@]34O[C@](Cc5ccccc5)(O[C@@H]1[C@@H]3C=C(COC(=O)Cc1ccc(O)c(OC)c1)C[C@]1(O)C(=O)C(C)=C[C@@H]41)O2	0 ng/mL

###

# ASSAY_INFO: Pharmacokinetic/toxicokinetic profile of RTX after intravesical instillation in dogs
# Format: in vivo, dog
# EXPERIMENTAL_CONTEXT: male, dog, plasma, 250 ug, male dogs 1003, 1005 individual, 250 mcg intravesical; read-out: Tmax
METRIC_NAME: Tmax (h)

MOLECULE	VALUE_UNIT	TEST_RESULT
C=C(C)[C@]12C[C@@H](C)[C@@]34O[C@](Cc5ccccc5)(O[C@@H]1[C@@H]3C=C(COC(=O)Cc1ccc(O)c(OC)c1)C[C@]1(O)C(=O)C(C)=C[C@@H]41)O2	h	1

###

# ASSAY_INFO: Pharmacokinetic/toxicokinetic profile of RTX after intravesical instillation in dogs
# Format: in vivo, dog
# EXPERIMENTAL_CONTEXT: female, dog, plasma, other: intravesical instillation, 250 mcg, female dogs, 250 mcg intravesical, 4 h; read-out: Plasma concentration of RTX, Mean
METRIC_NAME: concentration at 4 h (ng/mL)

MOLECULE	METRIC_NAME	TEST_RESULT
C=C(C)[C@]12C[C@@H](C)[C@@]34O[C@](Cc5ccccc5)(O[C@@H]1[C@@H]3C=C(COC(=O)Cc1ccc(O)c(OC)c1)C[C@]1(O)C(=O)C(C)=C[C@@H]41)O2	concentration at 4 h	0

###

# ASSAY_INFO: Pharmacokinetic/toxicokinetic profile of RTX after intravesical instillation in dogs
# Format: in vivo, dog
# EXPERIMENTAL_CONTEXT: male, dog, plasma, 250 ug, male dogs, 250 mcg intravesical; read-out: Cmax, Mean
METRIC_NAME: Cmax (ng/mL)

MOLECULE	METRIC_NAME	TEST_RESULT
C=C(C)[C@]12C[C@@H](C)[C@@]34O[C@](Cc5ccccc5)(O[C@@H]1[C@@H]3C=C(COC(=O)Cc1ccc(O)c(OC)c1)C[C@]1(O)C(=O)C(C)=C[C@@H]41)O2	Cmax	0.352

###

# ASSAY_INFO: Pharmacokinetic/toxicokinetic profile of RTX after intravesical instillation in dogs
# Type: in vivo, dog
# EXPERIMENTAL_CONTEXT: female, dog, plasma, other: intravesical instillation into the urinary bladder, 250 mcg, female dogs, 250 mcg intravesical, 0.5 h; read-out: Plasma concentration of RTX, Mean

MOLECULE	concentration at 0.5 h, ng/mL
C=C(C)[C@]12C[C@@H](C)[C@@]34O[C@](Cc5ccccc5)(O[C@@H]1[C@@H]3C=C(COC(=O)Cc1ccc(O)c(OC)c1)C[C@]1(O)C(=O)C(C)=C[C@@H]41)O2	0.194
